// data source = PubChem BioAssay AID2060885

Test system: NCI-H23 complex spheroids with HUVEC/MSC, viability
test.name: Anticancer human tumor NCI-H23 cell line growth inhibition [RAS];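 further: spheroids exposed to compound for 7 days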
cond: curve of first compound; second compound 0.0316 µM
Excerpt: RAS pathway inhibitors in Combinations in Complex Spheroids A high-throughput screen of multi-cell type tumor spheroids was designed to identify active combinations of RAS pathway inhibitors and targeted small molecules. Complex spheroids include a stromal component modeled by human endothelial cells (HUVEC) and fibroblasts modeled by human mesenchymal stem cells (MSCs). […] Compounds. […] If the clinical Cmax for an agent had not been determined, the highest concentration tested was 10 microM. […]
pIC50: −log10 of the molar value.

# molecule, comparison.operator, pIC50
measured = [
    ("CCN1CCN(Cc2ccc(Nc3ncc(F)c(-c4cc(F)c5nc(C)n(C(C)C)c5c4)n3)nc2)CC1 + C=CC(=O)N1CCN(c2nc(OCC3CCCN3C)nc3c(F)c(-c4nc(N)cc(C)c4C(F)(F)F)c(Cl)cc23)C(C)C1", ">", 8.50),
    ("NC1c2ccccc2OC12CCN(c1cnc3c(N4CCCc5ncccc54)n[nH]c3n1)CC2 (stereo not given) + C#Cc1c(F)ccc2cc(O)cc(-c3ncc4c(N5CC6CCC(C5)N6)nc(OCC56CCCN5CC(F)C6)nc4c3F)c12", "=", 6.55),
    ("C=CC(=O)Nc1cc(Nc2nccc(-c3cn(C)c4ccccc34)n2)c(OC)cc1N(C)CCN(C)C + C#Cc1c(F)ccc2cc(O)cc(-c3ncc4c(N5CC6CCC(C5)N6)nc(OCC56CCCN5CC(F)C6)nc4c3F)c12", "<", 6.00),
    ("CC1(O)CCCC1n1c(=O)c(C(F)F)cc2cnc(NC3CCN(S(C)(=O)=O)CC3)nc21 (stereo not given) + C#Cc1c(F)ccc2cc(O)cc(-c3ncc4c(N5CC6CCC(C5)N6)nc(OCC56CCCN5CC(F)C6)nc4c3F)c12", "=", 5.26),
    ("CCC(CC)c1cc(NC2CCC(N)C2)n2nccc2n1 (stereo not given) + C#Cc1c(F)ccc2cc(O)cc(-c3ncc4c(N5CC6CCC(C5)N6)nc(OCC56CCCN5CC(F)C6)nc4c3F)c12", "=", 5.74),
    ("NC1c2ccccc2OC12CCN(c1cnc3c(N4CCCc5ncccc54)n[nH]c3n1)CC2 (stereo not given) + C=CC(=O)N1CCN(c2nc(OCC3CCCN3C)nc3c(F)c(-c4nc(N)cc(C)c4C(F)(F)F)c(Cl)cc23)C(C)C1", ">", 7.50),
    ("CC1(C)CCC(Nc2ncc(C(F)(F)F)c(-c3c[nH]c4c(P(C)(C)=O)c(C#N)ccc34)n2)CN1 (stereo not given) + C#Cc1c(F)ccc2cc(O)cc(-c3ncc4c(N5CC6CCC(C5)N6)nc(OCC56CCCN5CC(F)C6)nc4c3F)c12", "=", 7.60),
    ("CCC(CC)c1cc(NC2CCC(N)C2)n2nccc2n1 (stereo not given) + C=CC(=O)N1CCN(c2nc(OCC3CCCN3C)nc3c(F)c(-c4nc(N)cc(C)c4C(F)(F)F)c(Cl)cc23)C(C)C1", ">", 7.50),
    ("CC1(O)CCCC1n1c(=O)c(C(F)F)cc2cnc(NC3CCN(S(C)(=O)=O)CC3)nc21 (stereo not given) + C=CC(=O)N1CCN(c2nc(OCC3CCCN3C)nc3c(F)c(-c4nc(N)cc(C)c4C(F)(F)F)c(Cl)cc23)C(C)C1", ">", 7.50),
    ("CC(C)n1nc(-c2ccc3oc(N)nc3c2)c2c(N)ncnc21 + C=CC(=O)N1CCN(c2nc(OCC3CCCN3C)nc3c(F)c(-c4nc(N)cc(C)c4C(F)(F)F)c(Cl)cc23)C(C)C1", ">", 9.50),
]
